Values from ChEMBL document CHEMBL3433997

- tested-target: Hexose transporter 1 (Plasmodium falciparum) (UniProt O97467)
- assay-name: ST_JUDE_LEISH: Cytotoxicity at 2uM final concentration against transgenic Leishmania Mexicana promastigotes LmPfHT that are glucose transport deficient and complemented with the Plasmodium falciparum hexose transporter. Activity is measured by DNA content using SYBR green in vitro
- Assay type: functional
Below, each entry is listed with its recorded inhibition.
Report as a plain number; the unit % is understood.

Consider the following illustrative entries.
>  <molecule>
CN(C)Cc1ccc(CNC2CCN(Cc3ccccc3Cl)CC2)cc1

>  <tested-target>
Hexose transporter 1 (Plasmodium falciparum) (UniProt O97467)

>  <units-text>
%

>  <readout-value>
13.8

$$$$
>  <molecule>
COc1cccc(C(=O)NCCc2cccc(Cl)c2)c1OCc1ccccc1

>  <tested-target>
Hexose transporter 1 (Plasmodium falciparum) (UniProt O97467)

>  <units-text>
%

>  <readout-value>
-0.53

$$$$

stdin: GET /values?readout=inhibition&item= Oc1ccc2[nH]c(-c3cccs3)nc2c1CN1CCC(O)(c2ccccc2)CC1
stdout: 5.23

stdin: GET /values?readout=inhibition&item= Cc1ccc(F)c(NC(=O)c2c(-c3c(F)cccc3Cl)noc2C)c1
stdout: 2.09

stdin: GET /values?readout=inhibition&item= Cc1ccc(C2CC(=O)CC(c3ccccn3)C2[N+](=O)[O-])cc1 (configuration not stated)
stdout: 0.92

stdin: GET /values?readout=inhibition&item= O=C(Nc1cccnc1)c1ccc(-c2cc3ccncc3cc2OC2CCNCC2)s1
stdout: 2.54

stdin: GET /values?readout=inhibition&item= Cc1csc(-c2nonc2NC(=O)COc2ccccc2C(C)C)n1
stdout: -1.84

====

- tested-target: Glucose transporter (Leishmania mexicana) (UniProt O61059)
- assay-name: ST_JUDE_LEISH: Cytotoxicity at 2uM final concentration against transgenic Leishmania Mexicana promastigotes LmGT2 that are glucose transport deficient and complemented with the L. Mexicana glucose transporter 2. Activity is measured by DNA content using SYBR green in vitro
- Format: functional
Below, each entry is listed with its recorded inhibition.
Report as a plain number; the unit % is understood.

Consider the following illustrative entries.
>  <compound>
O=C(CN1CCC(NCc2cnc(-c3ccc(Cl)cc3)[nH]2)CC1)N1CCc2ccccc21

>  <tested-target>
Glucose transporter (Leishmania mexicana) (UniProt O61059)

>  <units-text>
%

>  <readout-value>
0.77

$$$$
>  <compound>
O=C(Nc1ccc(-c2ccccc2)cc1)Nc1cccc(Cn2ncc(N3CCNCC3)c(Cl)c2=O)c1

>  <tested-target>
Glucose transporter (Leishmania mexicana) (UniProt O61059)

>  <units-text>
%

>  <readout-value>
6.76

$$$$
>  <compound>
Cn1nccc1C(=O)NCCNCc1ccc(-c2ccc(-c3nc4cc(C(F)(F)F)ccc4[nH]3)s2)cc1

>  <tested-target>
Glucose transporter (Leishmania mexicana) (UniProt O61059)

>  <units-text>
%

>  <readout-value>
0.87

$$$$
>  <compound>
Oc1ccccc1CCNCC1CCc2ccccc2C1 (centres undefined)

>  <tested-target>
Glucose transporter (Leishmania mexicana) (UniProt O61059)

>  <units-text>
%

>  <readout-value>
0.73

$$$$
>  <compound>
CN(C)CCNC(=O)N1CCCN(c2ncnc3cc(-c4ccccc4)sc23)CC1

>  <tested-target>
Glucose transporter (Leishmania mexicana) (UniProt O61059)

>  <units-text>
%

>  <readout-value>
6.1

$$$$
>  <compound>
CCn1c(-c2nonc2N)nc2c(-c3cccc(NC(=O)Nc4cccc(Cl)c4)c3)ncc(OCCCN)c21

>  <tested-target>
Glucose transporter (Leishmania mexicana) (UniProt O61059)

>  <units-text>
%

>  <readout-value>
2.75

$$$$
>  <compound>
Cc1csc2nc(-c3ccccn3)nc(Nc3ccncn3)c12

>  <tested-target>
Glucose transporter (Leishmania mexicana) (UniProt O61059)

>  <units-text>
%

>  <readout-value>
1.79

$$$$
>  <compound>
CCC(C)c1ccc(NC(=O)Nc2ccc(Cn3ncc(N4CCCNCC4)c(Cl)c3=O)cc2)cc1 (centres undefined)

>  <tested-target>
Glucose transporter (Leishmania mexicana) (UniProt O61059)

>  <units-text>
%

>  <readout-value>
-0.01

$$$$
>  <compound>
COc1ccc2nccc([C@@H](O)CN3CCC(NCc4cc5c(F)ccc(F)c5[nH]4)CC3)c2c1

>  <tested-target>
Glucose transporter (Leishmania mexicana) (UniProt O61059)

>  <units-text>
%

>  <readout-value>
2.77

$$$$
>  <compound>
Cc1cc(=NN=Cc2cccc(F)c2)c2ccc(F)cc2[nH]1

>  <tested-target>
Glucose transporter (Leishmania mexicana) (UniProt O61059)

>  <units-text>
%

>  <readout-value>
7.27

$$$$

stdin: GET /values?readout=inhibition&item= O=S(=O)(NC1CCN(c2ccnc3cc(Cl)ccc23)C1)c1ccc(C(F)(F)F)cc1 (centres undefined)
stdout: 0.45

stdin: GET /values?readout=inhibition&item= O=S(=O)(c1c(Cl)cccc1Cl)N1CCCCC(c2ccc(C(F)(F)F)cc2)=N1
stdout: 4.51

stdin: GET /values?readout=inhibition&item= CN1CCC(OC(=O)c2cc3cc(-c4ccccc4)ccc3n2S(=O)(=O)c2ccccc2)CC1
stdout: 3.61

stdin: GET /values?readout=inhibition&item= COc1ccc(COc2c(OC)cc(Cc3cnc(N)nc3N)cc2OC)cc1
stdout: 6.57

====

- tested-target: Glucose transporter (Leishmania mexicana) (UniProt O61059)
- assay-name: ST_JUDE_LEISH: Cytotoxicity at 2uM final concentration against transgenic Leishmania Mexicana promastigotes LmGT2 that are glucose transport deficient and complemented with the L. Mexicana glucose transporter 2. Activity is measured by DNA content using SYBR green in vitro
- Type: functional
Below, each entry is listed with its recorded inhibition.
Report as a plain number; the unit % is understood.

stdin: GET /values?readout=inhibition&item= CN(C)CCOc1ccc(-c2cc(-c3ccncc3)c(-c3ccc(Cl)c(O)c3)o2)cc1
stdout: 0.33

stdin: GET /values?readout=inhibition&item= CC(C)(C)c1cc(C(=O)N2CCN(c3nccnc3C#N)CC2)n(Cc2ccccc2)n1
stdout: 1.02

stdin: GET /values?readout=inhibition&item= Cc1cccc2nc(-c3ccc(-c4cccc(CN5CCC(C(N)=O)CC5)c4)s3)[nH]c12
stdout: 1.29

====

- tested-target: Glucose transporter (Leishmania mexicana)
- assay-name: ST_JUDE_LEISH: Cytotoxicity at 2uM final concentration against transgenic Leishmania Mexicana promastigotes LmGT2 that are glucose transport deficient and complemented with the L. Mexicana glucose transporter 2. Activity is measured by DNA content using SYBR green in vitro
- Assay type: functional
Assign class by inhibition: not lower than 3% means yes; lower than 3% means no.

>  <molecule>
CCOc1cc(C(=O)NCCN(CC)c2cccc(C)c2)ccc1-c1nc2cc(Cl)ccc2[nH]1

>  <tested-target>
Glucose transporter (Leishmania mexicana)

>  <class-label>
no

$$$$
>  <molecule>
CCOC(=O)CC[C@H](NC(=O)c1ccc(NS(=O)(=O)c2ccc(-c3cnc(N)[nH]c3=O)cc2)cc1)C(=O)OCC

>  <tested-target>
Glucose transporter (Leishmania mexicana)

>  <class-label>
yes

$$$$
>  <molecule>
CN(C)CCCOc1ccc(CN2CC[C@H](NC(=O)c3ccc(Cl)c(Cl)c3)C2)c2ccccc12

>  <tested-target>
Glucose transporter (Leishmania mexicana)

>  <class-label>
no

$$$$
>  <molecule>
COc1ccc(-c2cncc3ccc(C(=O)NCCCn4ccnc4)nc23)cc1

>  <tested-target>
Glucose transporter (Leishmania mexicana)

>  <class-label>
yes

$$$$
>  <molecule>
CC(C)c1ccc(NC(=O)c2ccc(C(=O)NC3CCN(Cc4ccsc4)C3)cc2)cc1 (stereo not drawn)

>  <tested-target>
Glucose transporter (Leishmania mexicana)

>  <class-label>
no

$$$$

stdin: Has CCOc1ccccc1C=CC(=O)Nc1ccc2nc(N3CCN(C)CC3)cc(C)c2c1 a recorded inhibition greater than or equal to 3%?
stdout: yes

stdin: Has CN(C)CCN1CCN(Cc2cccc(-c3csc(-c4nc5ccccc5[nH]4)c3)c2)CC1 a recorded inhibition greater than or equal to 3%?
stdout: no

stdin: Has CCOC(=O)c1ccc(NC(=O)N[C@@H](Cc2ccc(O)cc2)C(=O)NC2CCN(Cc3ccc4c(c3)OCO4)CC2)cc1 a recorded inhibition greater than or equal to 3%?
stdout: no

stdin: Has COc1ccc(-n2c(=O)c3c(n4c(SC(C)C)nnc24)-c2ccccc2CC32CCCCC2)cc1 a recorded inhibition greater than or equal to 3%?
stdout: no

====

- tested-target: Hexose transporter 1 (Plasmodium falciparum) (UniProt O97467)
- assay-name: ST_JUDE_LEISH: Cytotoxicity at 2uM final concentration against transgenic Leishmania Mexicana promastigotes LmPfHT that are glucose transport deficient and complemented with the Plasmodium falciparum hexose transporter. Activity is measured by DNA content using SYBR green in vitro
- Type: functional
quantity-kind: inhibition (%)
Report as a plain number; the unit % is understood.

>  <smiles-record>
CCOC(=O)c1cnc2c(OC)cc(OC)c(Cl)c2c1Nc1cccc(C)c1

>  <tested-target>
Hexose transporter 1 (Plasmodium falciparum) (UniProt O97467)

>  <readout-value>
8.66

$$$$
>  <smiles-record>
COc1ccc(CNCc2cccc(-c3cccc(-c4nc5ccccc5[nH]4)c3)c2)cc1

>  <tested-target>
Hexose transporter 1 (Plasmodium falciparum) (UniProt O97467)

>  <readout-value>
4.28

$$$$

Below: the item to evaluate.
stdin: GET /values?readout=inhibition&item= COc1cccc(CNC(=O)c2cc(CNCc3ccccc3)ccc2-c2cccc(CNCc3ccc(-c4ccccc4)cc3)c2)c1
stdout: 4.88
